Ref: ChEMBL document CHEMBL4616711

Test: Apparent permeability across apical to basolateral membrane in human Caco2 cells at 5 uM incubated for 2 hrs by LC-MS/MS analysis
Type: ADME, cell-based
Conditions: Caco-2
Recorded metric: Papp A→B at 2 h, 5 µM (×10⁻⁶ cm/s)
// return numeric value only (unit: ×10⁻⁶ cm/s, not printed)

### Prompt # get_value(readout='Papp A→B at 2 h, 5 µM', item= `COc1ccc(C(=O)N2[C@H](C)CN(C(=O)c3ccc4cc[nH]c4c3)C[C@H]2C)c(F)c1` )
### Response 12.3

###

Test: Kinetic solubility in Dulbecco's phosphate buffer saline at pH 7.4 by UPLC analysis
Type: physicochemical
Conditions: Dulbecco's phosphate buffered saline, read-out: Kinetic_solubility
Recorded metric: solubility kinetic (µM)
// return numeric value only (unit: µM, not printed)

### Prompt # get_value(readout='solubility kinetic', item= `COc1ccc(C(=O)N2[C@H](C)CN(C(=O)c3ccc4cc[nH]c4c3)C[C@H]2C)c(F)c1` )
### Response 148
